- procedure summary: Trough plasma concentration of pasireotide, radioimmunoassay
- Format: in vivo, human
- details: human, Month 6, UFC responders, n=4, LLOQ 150 pg/mL, SD, read-out: Ctrough, mean ± SD
*1 amine or outer side, *2 acyl side, *3 side chain or, on linkers, in order; H or OH if unused. Where a SMILES comes first, the peptide text is derived from it. Side-chain parts run from the residue outwards. [ ]: non-standard residue; d: D form. The star is where a group is joined. Ethylenediamine = C(CN[*:2])N[*:1]; Hyp = O=C(O)[C@@H]1C[C@@H](O)CN1; Phg = N[C@H](C(=O)O)c1ccccc1; CO = O=C([*:1])[*:2]; Bn = c1ccc(C*)cc1
measured endpoint: level at 4320 h (ng/mL)
One number for each entry, in ng/mL.

Q. Report level at 4320 h for NCCCC[C@@H]1NC(=O)[C@@H](Cc2c[nH]c3ccccc23)NC(=O)[C@H](c2ccccc2)NC(=O)[C@@H]2C[C@@H](OC(=O)NCCN)CN2C(=O)[C@H](Cc2ccccc2)NC(=O)[C@H](Cc2ccc(OCc3ccccc3)cc2)NC1=O [pasireotide] (cyclo([Hyp]([CO-Ethylenediamine])[Phg][dW]KY(Bn)F))
A. 17.4
